Reported phosphorylation enrichment is given for each of the following sequences.
- Tested on: c-Abl (mouse)
- TEST_DETAILS: phosphorylation enrichment, bacterial display (enrichment ratio); higher = better substrate or ligand; peptides without Tyr show the background;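 note: 11-residue human phosphosite peptides and single-mutation variants displayed on the E. coli surface, counted by deep sequencing, each peptide's frequency after selection divided by its frequency in the unselected input library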;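 note: frequency after pTyr selection over input frequency; kinase dosed for 20-30% of maximal phosphorylation in three min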
Form rule: numeric answer, no unit written next to it.

# query: phosphorylation enrichment of entry KIVQDYLEKFY [MMP8_Y36_T32I]
0.579

Which phosphorylation enrichment value is on record for VASSLYDIFAR [GLB1_Y294_L297F] ?
1.25

For TWQSMYGCDVG [HLA-B_Y123_L119W] , what is its reported phosphorylation enrichment?
1.03

====

- TEST_SYSTEM: EPHB2 (UniProt P29323)
- Sequence (P29323 whole entry, looked up): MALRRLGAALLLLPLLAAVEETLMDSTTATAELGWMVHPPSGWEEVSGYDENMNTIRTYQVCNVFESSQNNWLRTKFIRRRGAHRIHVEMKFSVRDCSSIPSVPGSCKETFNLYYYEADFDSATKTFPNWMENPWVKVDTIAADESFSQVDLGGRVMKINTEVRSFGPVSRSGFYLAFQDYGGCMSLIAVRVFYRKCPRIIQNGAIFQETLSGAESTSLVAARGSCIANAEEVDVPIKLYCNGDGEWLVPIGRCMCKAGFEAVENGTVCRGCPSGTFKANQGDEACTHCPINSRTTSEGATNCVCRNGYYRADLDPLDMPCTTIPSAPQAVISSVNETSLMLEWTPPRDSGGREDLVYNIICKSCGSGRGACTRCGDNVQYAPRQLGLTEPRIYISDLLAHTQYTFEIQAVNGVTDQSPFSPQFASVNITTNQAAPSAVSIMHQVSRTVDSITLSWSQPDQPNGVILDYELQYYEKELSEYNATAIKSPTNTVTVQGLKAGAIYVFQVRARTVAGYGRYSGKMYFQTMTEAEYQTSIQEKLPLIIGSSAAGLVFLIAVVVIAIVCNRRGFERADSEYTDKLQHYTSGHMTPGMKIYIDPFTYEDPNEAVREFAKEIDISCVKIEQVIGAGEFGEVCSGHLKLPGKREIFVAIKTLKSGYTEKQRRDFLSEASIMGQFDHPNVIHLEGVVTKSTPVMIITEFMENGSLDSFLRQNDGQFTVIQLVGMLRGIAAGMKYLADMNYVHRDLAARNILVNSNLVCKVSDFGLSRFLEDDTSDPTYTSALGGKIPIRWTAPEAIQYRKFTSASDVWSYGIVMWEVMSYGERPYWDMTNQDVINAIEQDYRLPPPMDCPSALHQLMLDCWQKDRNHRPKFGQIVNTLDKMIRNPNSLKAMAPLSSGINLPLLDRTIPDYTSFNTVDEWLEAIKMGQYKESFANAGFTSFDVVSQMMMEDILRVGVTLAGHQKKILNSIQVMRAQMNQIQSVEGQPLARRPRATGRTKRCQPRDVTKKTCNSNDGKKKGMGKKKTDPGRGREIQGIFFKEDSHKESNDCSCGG
- TEST_DETAILS: phosphorylation enrichment, bacterial display (enrichment ratio); higher = better substrate or ligand; peptides without Tyr show the background
MEASUREMENT_KIND: phosphorylation enrichment

Some solved cases for reference:
| SEQ | VALUE |
| --- | --- |
| GEFFRYLAEVA [YWHAG_Y133_D129E_YF] | 0.501 |
| TEQDPYNNIVH [MMUT_Y364_R369H] | 0.679 |

We now examine a further sequence.
Any idea what phosphorylation enrichment was measured for DLKFHYDNTAG [KDR_Y1214_P1210L] ?
0.504
